# target_entity: Transitional endoplasmic reticulum ATPase (Homo sapiens, UniProt P55072)
# Sequence (P55072 whole entry): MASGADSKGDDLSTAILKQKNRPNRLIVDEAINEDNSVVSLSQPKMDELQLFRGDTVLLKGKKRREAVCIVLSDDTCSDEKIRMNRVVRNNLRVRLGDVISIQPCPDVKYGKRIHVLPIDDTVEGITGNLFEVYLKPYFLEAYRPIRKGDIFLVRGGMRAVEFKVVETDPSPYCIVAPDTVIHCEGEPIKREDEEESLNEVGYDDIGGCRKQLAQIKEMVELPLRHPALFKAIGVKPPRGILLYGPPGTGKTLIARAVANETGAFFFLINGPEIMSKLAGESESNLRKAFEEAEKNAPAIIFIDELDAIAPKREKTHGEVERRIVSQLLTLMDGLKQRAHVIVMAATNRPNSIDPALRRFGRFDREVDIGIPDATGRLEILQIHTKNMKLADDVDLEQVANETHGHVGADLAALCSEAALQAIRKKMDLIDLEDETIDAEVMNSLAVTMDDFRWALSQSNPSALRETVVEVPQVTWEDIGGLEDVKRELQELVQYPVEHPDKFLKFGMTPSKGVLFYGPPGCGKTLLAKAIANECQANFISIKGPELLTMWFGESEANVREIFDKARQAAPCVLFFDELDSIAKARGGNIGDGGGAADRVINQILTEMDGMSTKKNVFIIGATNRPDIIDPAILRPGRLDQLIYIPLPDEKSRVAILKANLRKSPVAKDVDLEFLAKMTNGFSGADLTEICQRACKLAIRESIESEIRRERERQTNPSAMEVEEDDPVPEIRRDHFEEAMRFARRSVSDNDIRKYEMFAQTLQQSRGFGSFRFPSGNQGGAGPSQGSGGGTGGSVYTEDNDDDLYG
Doc: threshold 90 nM (exclusive). Items with IC50 beneath it return Criterion met; others return Criterion not met.

[[record]]
structure_smiles = "CC#CC(=O)Nc1cccc2c1cc(C)n2-c1ncc(OC)c(NCc2cccc(B(O)O)c2)n1"
target_entity = "Transitional endoplasmic reticulum ATPase (Homo sapiens, UniProt P55072)"
cat = "Criterion met"

[[record]]
structure_smiles = "Cc1cc2c(NC(=O)c3ccno3)cccc2n1-c1nc2c(c(NCc3cccc(B(O)O)c3)n1)CCC2"
target_entity = "Transitional endoplasmic reticulum ATPase (Homo sapiens, UniProt P55072)"
cat = "Criterion not met"

[[record]]
structure_smiles = "CC#CC(=O)Nc1cccc2c1cc(C)n2-c1nc(NCc2cccc(B(O)O)c2)c2ccccc2n1"
target_entity = "Transitional endoplasmic reticulum ATPase (Homo sapiens, UniProt P55072)"
cat = "Criterion not met"

[[record]]
structure_smiles = "Cc1cc2c(NS(C)(=O)=O)cccc2n1-c1nc2c(c(NCc3cccc(B(O)O)c3)n1)CCCC2"
target_entity = "Transitional endoplasmic reticulum ATPase (Homo sapiens, UniProt P55072)"
cat = "Criterion met"

[[record]]
structure_smiles = "COc1cnc(-n2c(C)cc3c(NC(=O)c4ccco4)cccc32)nc1NCc1cccc(B(O)O)c1"
target_entity = "Transitional endoplasmic reticulum ATPase (Homo sapiens, UniProt P55072)"
cat = "Criterion not met"

[[record]]
structure_smiles = "Cc1cc2c(NC(=O)CC#N)cccc2n1-c1nc2c(c(NCc3cccc(B(O)O)c3)n1)CCC2"
target_entity = "Transitional endoplasmic reticulum ATPase (Homo sapiens, UniProt P55072)"
cat = "Criterion not met"

[[record]]
structure_smiles = "Cc1cc2c(NC(=O)CCl)cccc2n1-c1nc2c(c(NCc3cccc(B(O)O)c3)n1)CCC2"
target_entity = "Transitional endoplasmic reticulum ATPase (Homo sapiens, UniProt P55072)"
cat = "Criterion not met"

[[record]]
structure_smiles = "Cc1cc2c(NC(=O)c3cscn3)cccc2n1-c1nc2c(c(NCc3cccc(B(O)O)c3)n1)CCC2"
target_entity = "Transitional endoplasmic reticulum ATPase (Homo sapiens, UniProt P55072)"
cat = "Criterion not met"


###

# target_entity: Transitional endoplasmic reticulum ATPase (Homo sapiens, UniProt P55072)
# procedure_text: Inhibition of p97 (unknown origin) incubated for 60 mins by ADP-Glo assay
pIC50: −log10 of the molar value.
// reported pIC50 per item
endpoint: pIC50

[[record]]
structure_smiles = "Cc1cc2c(NS(C)(=O)=O)cccc2n1-c1nc(NCc2cccc(B(O)O)c2)c2ccccc2n1"
recorded_number = 7.05

[[record]]
structure_smiles = "C#CC(=O)Nc1cccc2c1cc(C)n2-c1nc2c(c(NCc3cccc(B(O)O)c3)n1)CCC2"
recorded_number = 7.04

[[record]]
structure_smiles = "CC#CC(=O)Nc1cccc2c1cc(C)n2-c1nc2c(c(NCc3cccc(B(O)O)c3)n1)CCCC2"
recorded_number = 7.05

